Data provenance is ChEMBL document CHEMBL4184109.

Property: MIC80; scope: individual molecules
Tested on: Aspergillus fumigatus
Test: Antifungal activity against Aspergillus fumigatus after 48 hrs by serial dilution method
Type: functional

// fetch MIC80 given entry O=c1n(-c2ccc(C(F)(F)C(O)(Cn3cnnn3)c3ccc(F)cc3F)nc2)cnn1C1CCC1 (stereo not given)
> 64 µg/mL

State its MIC80 for this molecule: O=c1n(-c2ccc(C(F)(F)C(O)(Cn3cnnn3)c3ccc(F)cc3F)nc2)cnn1Cc1ccc(Cl)cc1 (stereo not given)
> 8 µg/mL

Supply reported MIC80 belonging to this molecule: CC(O)(CO)Cn1ncn(-c2ccc(C(F)(F)C(O)(Cn3cnnn3)c3ccc(F)cc3F)nc2)c1=O (stereo not given)
> 8 µg/mL

---
Give MIC80 for the following molecule: CC1(C)CCC(n2ncn(-c3ccc(C(F)(F)C(O)(Cn4cnnn4)c4ccc(F)cc4F)nc3)c2=O)CC1 (stereo not given)
> 64 µg/mL

Fill in MIC80 for record CSc1ccc(Cn2ncn(-c3ccc(C(F)(F)C(O)(Cn4cnnn4)c4ccc(F)cc4F)nc3)c2=O)cc1 (stereo not given)
> 64 µg/mL

###

Test system: Candida parapsilosis
Experiment: Antifungal activity against Candida parapsilosis ATCC 22019 after 24 hrs by serial dilution method
Assay type: functional
Conditions: Lodderomyces parapsilosis, ATCC 22019, 24 h
measured.metric: log10 MIC80 (log10 of the value in µg/mL)
The base-10 logarithm of MIC80, taken with MIC80 in µg/mL, is what appears here.

Field: example entries. Status: answers known.
# return recorded log10 MIC80 for entry O=c1n(-c2ccc(C(F)(F)C(O)(Cn3cnnn3)c3ccc(F)cc3F)nc2)cnn1Cc1ccncc1 (centres undefined)
0.90

Indicate its recorded log10 MIC80; the molecule in question is O=C1CCCCC1n1ncn(-c2ccc(C(F)(F)C(O)(Cn3cnnn3)c3ccc(F)cc3F)nc2)c1=O (centres undefined)
0.30

State its log10 MIC80: O=c1n(-c2ccc(C(F)(F)C(O)(Cn3cnnn3)c3ccc(F)cc3F)nc2)cnn1CC1CCCCC1 (centres undefined)
-0.60

Respond only with log10 MIC80 recorded for CC(C)(O)Cn1ncn(-c2ccc(C(F)(F)C(O)(Cn3cnnn3)c3ccc(F)cc3F)nc2)c1=O (centres undefined)
0.60

Supply measured log10 MIC80 of O=c1n(-c2ccc(C(F)(F)C(O)(Cn3cnnn3)c3ccc(F)cc3F)nc2)cnn1Cc1ccc(Cl)cc1 (centres undefined) in your reply.
-0.30

Note log10 MIC80 for the molecule shown: COCCOc1ccc(Cn2ncn(-c3ccc(C(F)(F)C(O)(Cn4cnnn4)c4ccc(F)cc4F)nc3)c2=O)cc1 (centres undefined)
0.30

Return the recorded log10 MIC80 value; entry: O=c1n(-c2ccc(C(F)(F)C(O)(Cn3cnnn3)c3ccc(F)cc3F)nc2)cnn1C1CCC1 (centres undefined)
-0.30

Answer with the recorded log10 MIC80 for the molecule listed here: CC1(C)CCC(n2ncn(-c3ccc(C(F)(F)C(O)(Cn4cnnn4)c4ccc(F)cc4F)nc3)c2=O)CC1 (centres undefined)
0.60

Now take the following molecule into account.
Entry O=c1n(-c2ccc(C(F)(F)C(O)(Cn3cnnn3)c3ccc(F)cc3F)nc2)cnn1Cc1ccccc1 (centres undefined) needs its log10 MIC80 filled in; supply it.
-0.60

###

System: Candida parapsilosis
Experiment: Antifungal activity against Candida parapsilosis ATCC 22019 after 24 hrs by serial dilution method
Assay type: functional
Details: Lodderomyces parapsilosis, ATCC 22019, 24 h
measured.metric: MIC80

// worked examples, MIC80 included
Please give the documented MIC80 of CS(=O)(=O)CCn1ncn(-c2ccc(C(F)(F)C(O)(Cn3cnnn3)c3ccc(F)cc3F)nc2)c1=O (stereo not drawn)
> 8 µg/mL

// fetch MIC80 given entry CS(=O)(=O)c1ccc(Cn2ncn(-c3ccc(C(F)(F)C(O)(Cn4cnnn4)c4ccc(F)cc4F)nc3)c2=O)cc1 (stereo not drawn)
> 64 µg/mL

# next compound below
Provide one value: measured MIC80 of O=c1n(-c2ccc(C(F)(F)C(O)(Cn3cnnn3)c3ccc(F)cc3F)nc2)cnn1CCO (stereo not drawn)
> 8 µg/mL

###

Test system: Aspergillus fumigatus
Assay: Antifungal activity against Aspergillus fumigatus after 48 hrs by serial dilution method
Assay type: functional
measured.metric: MIC80

Examples with answers:
Using known records, supply MIC80 for O=c1n(-c2ccc(C(F)(F)C(O)(Cn3cnnn3)c3ccc(F)cc3F)nc2)cnn1CC1CCCCC1 (stereo not given)
> 64 µg/mL

Please look at this compound and report its MIC80: Cc1ccc(Cn2ncn(-c3ccc(C(F)(F)C(O)(Cn4cnnn4)c4ccc(F)cc4F)nc3)c2=O)cc1 (stereo not given)
> 8 µg/mL

Please report the measured MIC80 for CCn1ncn(-c2ccc(C(F)(F)C(O)(Cn3cnnn3)c3ccc(F)cc3F)nc2)c1=O (stereo not given)
> 8 µg/mL

Query MIC80 for O=c1n(-c2ccc(C(F)(F)C(O)(Cn3cnnn3)c3ccc(F)cc3F)nc2)cnn1Cc1ccccc1 (stereo not given)
> 8 µg/mL

// moving on: another record for MIC80
Indicate the recorded MIC80 value for this compound: O=c1n(-c2ccc(C(F)(F)C(O)(Cn3cnnn3)c3ccc(F)cc3F)nc2)cnn1C1CC=CCC1 (stereo not given)
> 64 µg/mL
